meta.source: patent US20110305784A1

- experimental details: in vitro
- experimental parameters: human
assay metric: CC50
Record the result as number plus unit.

molecule="CC(C)=CCC[C@]1(C)C=Cc2c(O)c3c(c(CC(O)C(C)(C)O)c2O1)O[C@]12C(=C[C@@H]4CC1C(C)(C)OC2(C/C=C(/C)C(=O)O)C4=O)C3=O (stereo partly drawn)" assay_metric=CC50 meas_value="3.1 µg/mL"

For each listed entry, give its CC50.
1. CC(C)=CCC[C@]1(C)C=Cc2c(O)c3c(c(CC4OC4(C)C)c2O1)O[C@]12C(=C[C@@H]4CC1C(C)(C)OC2(C/C=C(/C)C(=O)O)C4=O)C3=O (stereo partly drawn)
2. CC(C)=CCC[C@@]1(C)C=Cc2c(O)c3c(c(C(O)C4OC4(C)C)c2O1)O[C@]12C(=C[C@@H]4CC1C(C)(C)OC2(C/C=C(/C)C(=O)O)C4=O)C3=O (stereo partly drawn) [Gh-3311, epiformoxanthone G]

1. 0.85 µg/mL
2. 13.9 µg/mL
